Assay: Peptide solubility in PBS buffer at 1 mg/mL
Format: physicochemical
Conditions: pH 7.4, 1 mg/mL
Positions of bridges follow the written chain, without caps; N, C: chain ends. Residues, ends and D or L forms follow the SMILES beside them.
Observable: solubility

[
  {
    "Compound": "CC(C)[C@H](NC(=O)[C@H](CC(=O)O)NC(=O)[C@H](CCCCN)NC(=O)[C@H](Cc1ccc(O)cc1)NC(=O)[C@@H]1CSSC[C@H](NC(=O)[C@@H](N)Cc2ccccc2)C(=O)N[C@@H](CC(=O)O)C(=O)NCC(=O)N[C@@H](Cc2ccccc2)C(=O)N[C@@H](Cc2ccc(O)cc2)C(=O)N[C@@H](C)C(=O)N1)C(=O)O [Peptide 6] (H-FCDGFYACYKDV-OH; disulfide 2-8; N-terminus assumed)",
    "solubility": "> 1000 µg/mL"
  }
]

-- ask May I ask what solubility has been recorded for CSCC[C@H](NC(=O)[C@H](Cc1ccc(O)cc1)NC(=O)[C@@H]1CSSC[C@H](NC(=O)[C@@H](N)Cc2ccc(O)cc2)C(=O)N[C@@H](CC(=O)O)C(=O)NCC(=O)N[C@@H](Cc2ccccc2)C(=O)N[C@@H](Cc2ccc(O)cc2)C(=O)N[C@@H](C)C(=O)N1)C(=O)N[C@@H](CC(=O)O)C(=O)N[C@H](C(N)=O)C(C)C [Peptide 3] (H-YCDGFYACYMDV-NH2; disulfide 2-8; N-terminus assumed) ?
-- reply < 1000 µg/mL
